I'd appreciate it if you could supply AC50 values for the items below.
Assayed Target: Kappa-type opioid receptor (Homo sapiens, UniProt P41145); further: assay procedure not described here
Sequence (P41145 whole entry): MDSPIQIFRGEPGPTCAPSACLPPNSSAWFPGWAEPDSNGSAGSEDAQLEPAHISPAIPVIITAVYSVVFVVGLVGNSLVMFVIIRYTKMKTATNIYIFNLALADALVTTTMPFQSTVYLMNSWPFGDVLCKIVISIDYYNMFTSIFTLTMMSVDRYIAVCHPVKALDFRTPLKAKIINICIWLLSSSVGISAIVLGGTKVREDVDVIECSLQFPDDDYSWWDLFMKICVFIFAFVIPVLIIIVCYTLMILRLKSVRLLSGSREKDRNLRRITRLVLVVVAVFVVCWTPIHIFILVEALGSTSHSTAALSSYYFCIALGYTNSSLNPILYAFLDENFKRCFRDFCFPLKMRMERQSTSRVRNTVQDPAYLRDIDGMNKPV

For the 4 compounds below, give their AC50 values.
1. O=C(O)Cc1ccccc1Nc1c(Cl)cccc1Cl
2. CN[C@]1(c2ccccc2Cl)CCCCC1=O
3. O=c1c(O)c(-c2ccc(O)c(O)c2)oc2cc(O)cc(O)c12
4. CC1=C(C(=O)OC(C)C)C(c2cccc([N+](=O)[O-])c2)C(C(=O)OC2CN(C(c3ccccc3)c3ccccc3)C2)=C(N)N1 (centres undefined)

Output:
1: > 10 µM; 2: 13 µM; 3: 12.7 µM; 4: > 30 µM

For the 5 compounds below, give their AC50 values.
1. CN(CCOc1ccc(CC2SC(=O)NC2=O)cc1)c1ccccn1 (centres undefined)
2. COc1cc(C(C)=O)ccc1OCCCN1CCC(c2noc3cc(F)ccc23)CC1
3. CCCN1CC(NS(=O)(=O)N(CC)CC)CC2Cc3c(O)cccc3CC21 (centres undefined) [QUINAGOLIDE]
4. O=C(O)c1cccnc1Nc1cccc(C(F)(F)F)c1
5. NC[C@H]1CC[C@H](C(=O)Oc2ccc(CCC(=O)O)cc2)CC1 [CETRAXATE]

Output:
["> 30 µM", "> 10 µM", "1.7 µM", "> 10 µM", "> 30 µM"]
